System: NCI-H23 lung
Experiment: NCI-60 one-dose screen, 48 h (100 = growth as untreated, 0 = no growth, -100 = all killed)
Conditions: 10 µM unless noted
Compounds without any hit were thinned out: in the full panel of roughly 83,000, 20% have a hit.
endpoint name: growth (%)
Only the number, expressed in %, is required.

INPUT: State the recorded growth for this entry: Cc1ccc(-c2cc3nc(C(Cl)Cl)nc(-c4ccco4)n3n2)cc1
OUTPUT: 59.8

INPUT: If you can, please state the reported growth value of CC(=O)c1nnn(-c2c(C(=O)n3nc(C)cc3C)sc(=S)n2-c2ccccc2)c1C .
OUTPUT: 106

INPUT: # input molecule: Cc1ccc(S(=O)(=O)NCCNc2nc(Nc3ccc(N4CCN(C)CC4)cc3)nc3ccsc23)cc1 ; wanted: its growth
OUTPUT: 100

INPUT: Need growth of CCO/C=N/C1=C(C#N)C(c2ccc(OC)cc2)c2sc3c(C)cccc3c2O1 (stereo not given) , thanks.
OUTPUT: 25.4

INPUT: Given Cc1c(Cl)cccc1S(=O)(=O)Nc1ccc2c(c1)C(=O)N(C1CCC(=O)NC1=O)C2=O (stereo not given) , state its recorded growth.
OUTPUT: 102

INPUT: Recorded growth of COc1ccc([C@H]2c3[nH]c4ccccc4c3C[C@H]3C(=O)N(C4CCN(Cc5c(Cl)cccc5Cl)CC4)CC(=O)N23)c(OC)c1 , please.
OUTPUT: 98

INPUT: I am curious: what growth value has been reported for CC1=NC2=NN3C(=NN2C(c2ccccc2)=C1)N=NC(c1ccc(Br)cc1)=C3c1ccc(Br)cc1 ?
OUTPUT: 105

INPUT: I have this molecule here, CC1(C)NCCC[C@]2(C)[C@H]3C/C(=N\O)C4[C@@H]5C[C@@](C)(CO)CC[C@]5(C)CC[C@@]4(C)[C@]3(C)CC[C@@H]12 (stereo not given in full) , and I need its recorded growth.
OUTPUT: 94.2

INPUT: Returns the measured growth for the input molecule. Input: COc1ccc(NC(=O)CSc2nnc(-c3ccc4nc(-c5ccccc5)[nH]c4c3)o2)cc1
OUTPUT: 96.3

INPUT: // lookup growth for CN1CCN(Cc2ccc(NC(=O)c3cncc(C#Cc4cnc5ccc(OCC6(C)COC6)nn45)c3)cc2C(F)(F)F)CC1
OUTPUT: -76.2

INPUT: What value of measured growth is listed for CCNC(=O)N1CCc2cc(OC)c(OCCc3ccc(OC)nc3)cc2C1c1ccc(OC)cc1C (stereo not given) ?
OUTPUT: 44.8

INPUT: I have this molecule here, CN(C)CCCOc1ccc2c(c1)CN(C(=O)c1cc(C(=O)N3Cc4cccc(F)c4C3)ccc1O)C2 , and I need its recorded growth.
OUTPUT: 102

INPUT: Using the record for O=C(NNc1nc2cc(F)ccc2n2c(CO)ccc12)c1cnccn1 , report its growth.
OUTPUT: 22.8

INPUT: Which growth value belongs to C=C(C=O)[C@@H]1CC[C@]2(CO)CC[C@]3(C)[C@H](CC[C@@H]4[C@@]5(C)CCCNC(C)(C)[C@@H]5CC[C@]43C)[C@@H]12 ?
OUTPUT: 63.5

INPUT: Give its growth value. Item: O=C(CSc1nc2ccccc2c(=O)n1-c1ccccc1)Nc1cccc(C(=O)/C=C/c2ccccc2Cl)c1
OUTPUT: 96.8

INPUT: Which growth value belongs to COc1ccc(/C=C(/C)c2ccc3ccc(OC)cc3[o+]2)c(O)c1 ?
OUTPUT: 53.2

INPUT: Would you kindly share the measured growth for O=C(Nc1ccc2c(ccn2Cc2ccccn2)c1)c1ccnnc1 ?
OUTPUT: 94.6

INPUT: I would be grateful if you could share the reported growth for COc1cc2oc(-c3cccc(N)c3)cc(=O)c2c(OC)c1OC .
OUTPUT: 110

INPUT: # input molecule: COc1ccc(C2c3sc4c(C)cccc4c3Oc3nc(CC(=O)Nc4ccccc4)[nH]c(=O)c32)cc1 (stereo not given) ; wanted: its growth
OUTPUT: 62.2

INPUT: Fill in: growth of NS(=O)(=O)c1ccc(Nc2nc(SCC(=O)c3ccc(Cl)cc3)nc3c2CCCC3)cc1 is ___
OUTPUT: 53.9

INPUT: What does the record list as growth for COc1ccc(/C=C/C(=O)c2cccc(NC(=O)CSc3nc4ccccc4c(=O)n3-c3ccccc3)c2)cc1OC ?
OUTPUT: 106

INPUT: Returns the measured growth for the input molecule. Input: COc1c(N2CC3CCCNC3C2)c(F)cc2c(=O)c(C(=O)N/N=C/c3ccc(Br)cc3)cn(C3CC3)c12 (stereo not given)
OUTPUT: 88.3

INPUT: Would you kindly share the measured growth for C/C(=N\O)[C@H]1C[C@]23CC[C@]4(C)[C@H](CC[C@@H]5[C@@]6(C)CC/C(=N/O)C(C)(C)[C@@H]6CC[C@]54C)[C@H]2[C@H](C)C1(C)OC3 ?
OUTPUT: 96.5

INPUT: Using the record for COc1ccc(N2C(=O)c3cc(Cl)ccc3NC2SCc2ccccc2)cc1 (stereo not given) , report its growth.
OUTPUT: 97

INPUT: I have this molecule here, c1ccc(C(c2nc3ncncc3[nH]2)N2CSc3nc4ccccc4n3C2)cc1 (stereo not given) , and I need its recorded growth.
OUTPUT: 107
